Target: panel of 442 kinases (Homo sapiens, UniProt P48730)
Construct: purchased Ambit Biosciences (scanMAXX KINOMEscan)
Sequence (P48730 whole entry): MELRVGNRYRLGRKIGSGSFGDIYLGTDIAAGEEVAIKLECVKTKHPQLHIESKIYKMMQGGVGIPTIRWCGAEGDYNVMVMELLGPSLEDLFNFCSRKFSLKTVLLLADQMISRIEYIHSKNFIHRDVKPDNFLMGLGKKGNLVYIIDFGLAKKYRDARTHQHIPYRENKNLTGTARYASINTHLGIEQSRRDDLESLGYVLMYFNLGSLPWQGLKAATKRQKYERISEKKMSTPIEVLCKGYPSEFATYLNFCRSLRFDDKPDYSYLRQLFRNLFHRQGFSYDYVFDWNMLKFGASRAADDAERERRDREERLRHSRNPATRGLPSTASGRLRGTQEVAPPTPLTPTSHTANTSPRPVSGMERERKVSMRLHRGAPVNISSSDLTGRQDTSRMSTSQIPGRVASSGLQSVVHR
Assay: biochemical
Type: binding
Conditions: CSNK1D; 1 µM; read-out: % of control at 1 µM
Measured remaining activity at 1 µM of individual entries

{"Molecule": "COc1ncc(-c2ccc3nccc(-c4ccnnc4)c3c2)cc1NS(=O)(=O)c1ccc(F)cc1F", "Quantity Unit": "%", "remaining activity at 1 µM": 100}
{"Molecule": "FC(F)c1nc2ccccc2n1-c1nc(N2CCOCC2)nc(N2CCOCC2)n1", "Quantity Unit": "%", "remaining activity at 1 µM": 67}
{"Molecule": "Nc1cc(C(F)(F)F)c(-c2cc(N3CCOCC3)nc(N3CCOCC3)n2)cn1", "Quantity Unit": "%", "remaining activity at 1 µM": 92}
{"Molecule": "Cn1c(=O)n(-c2ccc(C(C)(C)C#N)cc2)c2c3cc(-c4cnc5ccccc5c4)ccc3ncc21", "Quantity Unit": "%", "remaining activity at 1 µM": 76}
